Tested on: Staphylococcus aureus
protocol.details: Antimicrobial activity against Staphylococcus aureus ATCC 25923 assessed as growth inhibition after 24 to 48 hr by two-fold serial dilution method relative to chloramphenicol
Type: functional
Would you kindly list growth inhibition (GI) for each of these molecules?
I only need the number, in %, no unit after it.

Any idea what growth inhibition (GI) was measured for "Cc1ccc(S(=O)(=O)Oc2ccc(-c3nnnn3-c3ccccc3C(=O)O)cc2)cc1" ? 25

For "Cc1ccc(S(=O)(=O)Oc2ccc(-c3nc4ccccc4c(=O)n3-c3nccs3)cc2)cc1" then? 50

For Cc1ccc(S(=O)(=O)Oc2ccc(-c3nc4ccccc4c(=O)n3C3=NNC(=O)C3/N=N/c3ccccc3)cc2)cc1 (centres undefined) then? 25

For "Cc1ccc(S(=O)(=O)Oc2ccc(-c3nc4ccccc4c(=O)n3-c3nc4ccccc4s3)cc2)cc1" then? 50
